Test system: DDR2
PROTOCOL_TEXT: KINOMEscan kinase binding assay
MEASUREMENT_CONTEXT: at 1 μM
Each entry below carries its reported % Ctrl.
Numeric answer only, unit % assumed.

# example entries with known answers
[
  {
    "STRUCTURE_NOTATION": "Cc1cc2c([nH]1)/C=C1\\C(=O)Nc3c(Cl)cc(cc31)-c1cn(C)nc1COC[C@@H](C)NC2=O",
    "UNIT_SYMBOL": "%",
    "READOUT_NUMBER": 100
  },
  {
    "STRUCTURE_NOTATION": "C[C@@H]1COCc2nn(C)cc2-c2cc(Cl)c3c(c2)/C(=C/c2[nH]ccc2C(=O)N1)C(=O)N3",
    "UNIT_SYMBOL": "%",
    "READOUT_NUMBER": 79
  },
  {
    "STRUCTURE_NOTATION": "Cc1cc2c([nH]1)/C=C1\\C(=O)Nc3ccc(cc31)-c1c(nn(C)c1C)OCCCN(C)C2=O",
    "UNIT_SYMBOL": "%",
    "READOUT_NUMBER": 95
  }
]

Noted for Cc1cc2c([nH]1)/C=C1\C(=O)Nc3ccc(cc31)-c1c(nn(C)c1C)COCCN(C)C2=O : its % Ctrl reads 100

The molecule Cc1cc2c([nH]1)/C=C1\C(=O)Nc3c(Cl)cc(cc31)-c1cn(C)nc1COC[C@@H](C)N(C)C2=O showed % Ctrl equal to 76

====

System: ERBB2
PROTOCOL_TEXT: KINOMEscan kinase binding assay
MEASUREMENT_CONTEXT: at 1 μM
READOUT_LABEL: % Ctrl
Your reply should be a number followed by the unit it is expressed in.

[
  {
    "STRUCTURE_NOTATION": "C[C@@H]1COCc2nn(C)cc2-c2cc(Cl)c3c(c2)/C(=C/c2[nH]ccc2C(=O)N1)C(=O)N3",
    "% Ctrl": "100%"
  },
  {
    "STRUCTURE_NOTATION": "Cc1cc2c([nH]1)/C=C1\\C(=O)Nc3ccc(cc31)-c1c(nn(C)c1C)COCCN(C)C2=O",
    "% Ctrl": "100%"
  },
  {
    "STRUCTURE_NOTATION": "Cc1cc2c([nH]1)/C=C1\\C(=O)Nc3c(Cl)cc(cc31)-c1cn(C)nc1COC[C@@H](C)N(C)C2=O",
    "% Ctrl": "100%"
  }
]

The compound Cc1cc2c([nH]1)/C=C1\C(=O)Nc3c(Cl)cc(cc31)-c1cn(C)nc1COC[C@@H](C)NC2=O showed % Ctrl equal to 100%

Item: Cc1cc2c([nH]1)/C=C1\C(=O)Nc3ccc(cc31)-c1c(nn(C)c1C)OCCCN(C)C2=O | % Ctrl: 98%

====

System: FGFR2
PROTOCOL_TEXT: KINOMEscan kinase binding assay
MEASUREMENT_CONTEXT: at 1 μM
READOUT_LABEL: % Ctrl (%)
Just the number in %, nothing appended.

Below, each entry is followed by its recorded % Ctrl result.
[
  {
    "STRUCTURE_NOTATION": "Cc1cc2c([nH]1)/C=C1\\C(=O)Nc3ccc(cc31)-c1c(nn(C)c1C)COCCN(C)C2=O",
    "READOUT_NUMBER": 85
  },
  {
    "STRUCTURE_NOTATION": "Cc1cc2c([nH]1)/C=C1\\C(=O)Nc3ccc(cc31)-c1c(nn(C)c1C)OCCCN(C)C2=O",
    "READOUT_NUMBER": 96
  },
  {
    "STRUCTURE_NOTATION": "C[C@@H]1COCc2nn(C)cc2-c2cc(Cl)c3c(c2)/C(=C/c2[nH]ccc2C(=O)N1)C(=O)N3",
    "READOUT_NUMBER": 99
  },
  {
    "STRUCTURE_NOTATION": "Cc1cc2c([nH]1)/C=C1\\C(=O)Nc3c(Cl)cc(cc31)-c1cn(C)nc1COC[C@@H](C)N(C)C2=O",
    "READOUT_NUMBER": 100
  }
]

Per the records, this compound ( Cc1cc2c([nH]1)/C=C1\C(=O)Nc3c(Cl)cc(cc31)-c1cn(C)nc1COC[C@@H](C)NC2=O ) has % Ctrl equal to 90
